- Test system: A. baumannii JMI7
- Protocol Notes: In vitro antimicrobial activity, MIC by broth microdilution (CLSI)
- Type: cell-based
- Condition: Acinetobacter baumannii, JMI7; PER-1, OXA-23, 51, ESBL and OXA-type carbapenemase producing strain; 5×10^5 cfu/mL; cation-adjusted Iso-Sensitest broth containing human Apo-transferrin; read-out: Minimum Inhibitory Concentration (MIC) A. baumannii JMI:7
Measure: MIC (µg/mL)

C[C@@H]1S[C@@H]2[C@H](NC(=O)/C(=N\OC(C)(C)C(=O)O)c3csc(N)n3)C(=O)N2C(C(=O)[O-])=C1C[N+]12CCC(Cn3cnc4cc(O)c(O)cc4c3=O)(CC1)CC2
0.5
C[C@@H]1S[C@@H]2[C@H](NC(=O)/C(=N\OC(C)(C)C(=O)[O-])c3csc(N)n3)C(=O)N2C(C(=O)[O-])=C1C[N+]12CCC(CC1)N(C(=O)C(=O)c1ccc(O)c(O)c1Cl)CC2.[Na+]
0.25
C[C@@H]1S[C@@H]2[C@H](NC(=O)/C(=N\OC(C)(C)C(=O)[O-])c3csc(N)n3)C(=O)N2C(C(=O)[O-])=C1C[N+]12CCC(CC1)N(C(=O)c1c[nH]c3cc(O)c(O)c(Cl)c3c1=O)CC2.[Na+]
0.25
C[C@@H]1S[C@@H]2[C@H](NC(=O)/C(=N\OC(C)(C)C(=O)[O-])c3csc(N)n3)C(=O)N2C(C(=O)[O-])=C1C[N+]12CCC[C@H]1CN(C(=O)C(=O)c1cc(O)c(O)c(F)c1)CC2.[Na+] (stereo partly shown)
2
C[C@@H]1S[C@@H]2[C@H](NC(=O)/C(=N\OC(C)(C)C(=O)O)c3csc(N)n3)C(=O)N2C(C(=O)[O-])=C1C[N+]12CCC(Cn3cnc4cc(O)c(O)c(Cl)c4c3=O)(CC1)CC2
0.25
C[C@@H]1S[C@@H]2[C@H](NC(=O)/C(=N\OC(C)(C)C(=O)[O-])c3csc(N)n3)C(=O)N2C(C(=O)[O-])=C1C[N+]1(C)C[C@H]2CN(C(=O)c3cc(O)c(O)c(F)c3)C[C@H]2C1.[Na+] (stereo partly shown)
1
C[C@@H]1S[C@@H]2[C@H](NC(=O)/C(=N\OC(C)(C)C(=O)O)c3csc(N)n3)C(=O)N2C(C(=O)[O-])=C1C[N+]12CCC(Cn3ncc4cc(O)c(O)c(Cl)c4c3=O)(CC1)CC2
0.5
C[C@@H]1S[C@@H]2[C@H](NC(=O)/C(=N\OC(C)(C)C(=O)[O-])c3csc(N)n3)C(=O)N2C(C(=O)[O-])=C1C[N+]1(CCNC(=O)C(=O)c2cc(O)c(O)c(F)c2)CCCC1.[Na+]
1
C[C@H]1S[C@@H]2[C@H](NC(=O)/C(=N\OC(C)(C)C(=O)[O-])c3csc(N)n3)C(=O)N2C(C(=O)O)=C1C[N+]1(CCNC(=O)c2ccc(O)c(O)c2Cl)CCCC1
2
C[C@@H]1S[C@@H]2[C@H](NC(=O)/C(=N\O[C@@H](CC(=O)[O-])C(=O)[O-])c3csc(N)n3)C(=O)N2C(C(=O)[O-])=C1C[N@+]12CCC[C@H]1CN(C(=O)C(=O)c1cc(O)c(O)c(Cl)c1)CC2.[Na+].[Na+]
2
